target: Anti-CD28 Fab (SEQ ID NOs: 202, 203); test: phage binding ELISA on captured Fab; competitor CD28 antigen;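 further: wells pretreated with CD28 antigen in blocking buffer or buffer only, then clonal phage supernatants added briefly without washing, bound phage detected via horseradish-conjugated anti-M13 antibody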
Sequence (VH, as listed by the source, chain 1 of 2): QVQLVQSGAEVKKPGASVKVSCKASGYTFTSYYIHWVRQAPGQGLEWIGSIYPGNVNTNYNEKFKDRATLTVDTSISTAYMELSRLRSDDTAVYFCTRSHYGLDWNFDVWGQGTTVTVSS
Sequence (VL, as listed by the source, chain 2 of 2): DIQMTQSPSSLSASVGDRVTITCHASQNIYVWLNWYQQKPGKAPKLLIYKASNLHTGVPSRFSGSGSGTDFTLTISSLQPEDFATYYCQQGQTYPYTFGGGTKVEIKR
Anti-CD28 Fab signal in the presence of CD28 strictly less than 0.08 = Fulfilled. Otherwise Not fulfilled.

Binder	Cat
YCWSHSPPFIKKCY [Phage-39]	Fulfilled
YCDGHLPEYQEKCL [Phage-71]	Not fulfilled
YCDGHLPEYMSKCM [Phage-66]	Not fulfilled
YCDGHSPEYMWKCL [Phage-49]	Not fulfilled
YCEGHLPEYLAKCL [Phage-35]	Not fulfilled
YCEGHAPEYIWKCL [Phage-31]	Fulfilled
